As shown below, each of these molecules has a reported GI50 value.
test system: TK-10; assay: NCI tumour cell line growth inhibition, 48 h
Active and inactive are the calls of the source. Rule as the data show it: active = GI50 up to about 1.1 µM and inactive = higher.
readoutType: GI50

INSERT INTO measurements (molecule, readouttype, result) VALUES
  ('OCC(O)COCn1cc(Cn2ncc3c(O)ncnc32)nn1 (stereo not given)', 'GI50', '> 100 µM (inactive)'),
  ('CC1(C)CC(O)C(C)(C)[C@@H](O)C1 (stereo not given in full)', 'GI50', '> 100 µM (inactive)'),
  ('COc1cc2c3cc1Oc1c(OC)c(OC)cc4c1[C@@H](Cc1ccc(O)c(c1)Oc1ccc(cc1)C[C@@H]3N(C)CC2)N(C)CC4.c1ccccc1', 'GI50', '17.8 µM (inactive)'),
  ('CN(C)Cc1cc(C(=O)/C=C/c2ccc(O)cc2)cc(CN(C)C)c1O', 'GI50', '53.7 µM (inactive)'),
  ('Cc1ccsc1/C=N/Nc1nc2ccccc2s1', 'GI50', '13.9 µM (inactive)'),
  ('COc1cc(C2C3=C(CCCC3=O)N(c3ccc(C)cc3)C3=C2C(=O)CCC3)c([N+](=O)[O-])cc1OC', 'GI50', '> 100 µM (inactive)'),
  ('CNCC(=O)Nc1ccc2c(c1)C(=O)c1ccc(NC(=O)CNC)cc1C2=O', 'GI50', '17.3 µM (inactive)'),
  ('CC1C(C#N)(C#N)C(C#N)=C(N)C1(C)[N+](=O)[O-] (stereo not given)', 'GI50', '> 100 µM (inactive)'),
  ('C[C@@H](c1ccccc1)C(CC#N)[C@H]1CCC[C@]1(O)C#Cc1ccc2c(c1)OCO2 (stereo not given in full)', 'GI50', '16 µM (inactive)'),
  ('c1cc(CSc2ncnc3[nH]cnc23)ccn1', 'GI50', '59.8 µM (inactive)');

====

system: UACC-257; assay: NCI tumour cell line growth inhibition, 48 h
Calls of active or inactive are those of the source. Cut-off read from the data, not from the text of the source: active = GI50 up to about 1.1 µM and inactive = higher.
readoutType: GI50

INSERT INTO assay_data (compound, result) VALUES
  ('O=S(=O)(O)C(O)/C=C/c1ccccc1 (centres undefined)', '> 100 µM (inactive)'),
  ('O=c1[nH]nc(Cc2ccccc2)n1C1CC1', '> 100 µM (inactive)'),
  ('CC1(C)CC2(C)OC(=N)C1(C#N)C2(C#N)C#N (centres undefined)', '7.4 µM (inactive)'),
  ('N#CC1=C(O)NC(O)=C(C#N)C1c1ccc(C2C(C#N)=C(O)NC(O)=C2C#N)cc1', '> 100 µM (inactive)'),
  ('CC1(O)C(=O)OC2CC([C@]3(O)CCC4[C@@H]5C[C@H]6O[C@]67[C@@H](O)C=CC(=O)[C@]7(C)C5CC[C@@]43C)C1(C)C2 (some centres undefined)', '11.5 µM (inactive)'),
  ('Nc1ccc(S(=O)(=O)NCc2nccs2)cc1', '17.7 µM (inactive)'),
  ('O=C1/C(=C/Cc2ccco2)N=C(c2ccccc2)N1c1nc2c(Cl)cc(Cl)cc2s1', '34.4 µM (inactive)'),
  ('C#CCOCC12C=CC(O1)C1C(=O)OCC12 (centres undefined)', '> 100 µM (inactive)'),
  ('O=C(O)c1nc2ccccc2nc1NCc1ccc(F)cc1', '> 100 µM (inactive)'),
  ('CC1(C)OC2C(=O)C=C(COCc3ccccc3)C2O1 (centres undefined)', '35.5 µM (inactive)'),
  ('CCOC(=O)C(=O)C(=O)NN(C)C1=NCCN1', '> 100 µM (inactive)'),
  ('CC(NNC(=O)c1cc[n+]([BH2-]C#N)cc1)c1ccccc1F (centres undefined)', '> 100 µM (inactive)'),
  ('CC(C)(C)OC(=O)N1CC(COS(C)(=O)=O)c2ccc(O)cc21 (centres undefined)', '2.29 µM (inactive)'),
  ('c1cc(N(CCn2cccn2)CCn2cccn2)cc(N(CCn2cccn2)CCn2cccn2)c1', '> 100 µM (inactive)'),
  ('O=C1CC(c2ccccc2)=Nc2ccccc2N1', '> 100 µM (inactive)'),
  ('O=c1c2c(c1=O)C1(SCCCS1)c1cc(Cl)ccc1O2', '> 100 µM (inactive)'),
  ('CN(Cc1cc(Br)cc(Br)c1O)Cc1c(O)ccc2ccccc12', '17.3 µM (inactive)'),
  ('O=C(Nc1cccc(Cc2cccc(NC(=O)c3ccccc3)c2)c1)c1ccccc1', '29.8 µM (inactive)'),
  ('C/C=C/C=C/c1nc(C#N)c(N)o1', '> 100 µM (inactive)'),
  ('O=C1C=C(Br)c2c(Br)sc(Br)c21', '1.89 µM (inactive)'),
  ('CCn1c(SCC(=O)NNC(=S)Nc2ccc(C)cc2)nc2ccccc2c1=O', '> 100 µM (inactive)'),
  ('O=C1C(=Cc2cccc(O)c2)N=C(c2ccccc2)N1n1c(-c2ccccc2)nc2ccccc2c1=O', '29 µM (inactive)'),
  ('CCC/N=C1\S/C(=C/c2ccc(OC)c(OC)c2)C(=O)N1c1ccccc1', '76.7 µM (inactive)'),
  ('CC(=O)[C@]1(C)[C@H](C)O[C@](C)(CO)[C@H]1O[Si](C)(C)c1ccccc1', '23 µM (inactive)'),
  ('OC1CN2Cc3cc4c(cc3[C@]13C=C[C@@H](O)CC23)OCO4 (some centres undefined)', '7.89 µM (inactive)'),
  ('O=C(OCN1C(=O)C2C3C=CC(C2C1=O)C1C2C(=O)N(COC(=O)C4CCCN4)C(=O)C2C31)C1CCCN1 (centres undefined)', '> 79.4 µM (inactive)'),
  ('CCCCn1/c(=N/C(=S)N(C)C)ss/c1=N\C(=S)N(C)C', '> 100 µM (inactive)'),
  ('Clc1ccc(CNc2nc(Cl)c3nc[nH]c3n2)cc1Cl', '13.5 µM (inactive)'),
  ('c1ccc2c(c1)SP1Sc3ccccc3P21 (centres undefined)', '> 100 µM (inactive)');
